Entries annotated with measured Highest drug concentration achieved with container
Assay: Phase solubility diagram
Settings: container M2C2
measure name: Highest drug concentration achieved with container (mM)

smiles text: C#C[C@]1(O)CC[C@H]2[C@@H]3CCc4cc(O)ccc4[C@H]3CC[C@@]21C
readout number: 33.6

smiles text: COc1ccc2c(c1)c(CC(=O)O)c(C)n2C(=O)c1ccc(Cl)cc1
readout number: 6.69

smiles text: O=C1CCc2ccc(OCCCCN3CCN(c4cccc(Cl)c4Cl)CC3)cc2N1
readout number: 9.26

smiles text: C[C@@H](c1ncncc1F)[C@](O)(Cn1cncn1)c1ccc(F)cc1F
readout number: 61.9

smiles text: CCCSc1ccc2nc(NC(=O)OC)[nH]c2c1
readout number: 2.78

smiles text: COc1cc2c(cc1O)CC[C@@H]1[C@@H]2CC[C@]2(C)[C@@H](O)CC[C@@H]12
readout number: 34.1

smiles text: Cc1c(Cl)cccc1Nc1ccccc1C(=O)O
readout number: 6.79

smiles text: CC[C@@]1(O)C(=O)OCc2c1cc1n(c2=O)Cc2cc3ccccc3nc2-1
readout number: 28.3

smiles text: O=C(NC1=CC(=O)[C@H]2O[C@H]2[C@H]1O)c1cc2ccccc2[nH]c1=O
readout number: 16.5

smiles text: N[C@@H](Cc1ccc(N(CCCl)CCCl)cc1)C(=O)O
readout number: 38.2

----------
Test: Phase solubility diagram
Details: container SBE-β-CD
measure name: Highest drug concentration achieved with container (mM)

smiles text: Cc1c(Cl)cccc1Nc1ccccc1C(=O)O
output unit: mM
readout number: 8.07
--
smiles text: C[C@@H](c1ncncc1F)[C@](O)(Cn1cncn1)c1ccc(F)cc1F
output unit: mM
readout number: 94.7
--
smiles text: COc1cc2c(cc1O)CC[C@@H]1[C@@H]2CC[C@]2(C)[C@@H](O)CC[C@@H]12
output unit: mM
readout number: 35.9
--
smiles text: CC[C@@]1(O)C(=O)OCc2c1cc1n(c2=O)Cc2cc3ccccc3nc2-1
output unit: mM
readout number: 0
--
smiles text: O=C(NC1=CC(=O)[C@H]2O[C@H]2[C@H]1O)c1cc2ccccc2[nH]c1=O
output unit: mM
readout number: 0

----------
Assay: Phase solubility diagram
Details: container SBE-β-CD
Entries annotated with measured Highest drug concentration achieved with container
measure name: Highest drug concentration achieved with container (mM)

compound: C#C[C@]1(O)CC[C@H]2[C@@H]3CCc4cc(O)ccc4[C@H]3CC[C@@]21C [Ethynyl Estradiol]
output unit: mM
readout number: 131
//
compound: O=C1CCc2ccc(OCCCCN3CCN(c4cccc(Cl)c4Cl)CC3)cc2N1 [Aripiprazole]
output unit: mM
readout number: 8.44
//
compound: N[C@@H](Cc1ccc(N(CCCl)CCCl)cc1)C(=O)O [Melphalan]
output unit: mM
readout number: 87.8
//
compound: COc1ccc2c(c1)c(CC(=O)O)c(C)n2C(=O)c1ccc(Cl)cc1 [Indomethacin]
output unit: mM
readout number: 9.92
//
compound: CCCSc1ccc2nc(NC(=O)OC)[nH]c2c1 [Albendazole]
output unit: mM
readout number: 3.94

----------
Assay: Phase solubility diagram
Settings: container SBE-β-CD; 20 mM sodium phosphate buffered D2O, pD 7.4, rt

smiles text: Cc1c(Cl)cccc1Nc1ccccc1C(=O)O
Initial slope of the PSD: 0.11

smiles text: CCCSc1ccc2nc(NC(=O)OC)[nH]c2c1
Initial slope of the PSD: 0.027

smiles text: O=C(NC1=CC(=O)[C@H]2O[C@H]2[C@H]1O)c1cc2ccccc2[nH]c1=O
Initial slope of the PSD: 0

smiles text: COc1ccc2c(c1)c(CC(=O)O)c(C)n2C(=O)c1ccc(Cl)cc1
Initial slope of the PSD: 0.23

smiles text: COc1cc2c(cc1O)CC[C@@H]1[C@@H]2CC[C@]2(C)[C@@H](O)CC[C@@H]12
Initial slope of the PSD: 0.21
